Where do these numbers come from? They come from the RNAGym collection of RNA variant scans (doi:10.1073/pnas.2313332121).

Overview of reported polymerase ribozyme fitness (log ratio) across a group of variants:
B1: TPR 5TU (parent)
chain: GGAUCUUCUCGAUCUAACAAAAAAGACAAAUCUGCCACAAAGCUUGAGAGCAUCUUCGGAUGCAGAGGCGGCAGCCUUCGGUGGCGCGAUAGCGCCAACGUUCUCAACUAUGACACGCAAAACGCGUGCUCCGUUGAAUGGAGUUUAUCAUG

# Variants of: B1
# METHOD: polymerase ribozyme fitness, log enrichment relative to wild type (log ratio); higher = more active; in vitro selection for triplet polymerase activity
This sample holds only a part of the variants without activity.

VARIANT_IDENTIFIER: A23G A29G C95G G152U
QUALIFIER_SYMBOL: =
polymerase ribozyme fitness (log ratio): -3.84
//
VARIANT_IDENTIFIER: U53A A73C
QUALIFIER_SYMBOL: =
polymerase ribozyme fitness (log ratio): -3.99
//
VARIANT_IDENTIFIER: A3G C14G A16C U82C C129G C131A
QUALIFIER_SYMBOL: ≤
polymerase ribozyme fitness (log ratio): -4.2
//
VARIANT_IDENTIFIER: A97U U148C
QUALIFIER_SYMBOL: =
polymerase ribozyme fitness (log ratio): -1.51
//
VARIANT_IDENTIFIER: U15C A20U C54U G86U
QUALIFIER_SYMBOL: =
polymerase ribozyme fitness (log ratio): -1.77
//
VARIANT_IDENTIFIER: C14U U31A G48C G67C A91U
QUALIFIER_SYMBOL: ≤
polymerase ribozyme fitness (log ratio): -4.2
//
VARIANT_IDENTIFIER: C51U A52G C76A A89G A97C C105U A119C G141U
QUALIFIER_SYMBOL: ≤
polymerase ribozyme fitness (log ratio): -4.2
//
VARIANT_IDENTIFIER: C5U C96A
QUALIFIER_SYMBOL: =
polymerase ribozyme fitness (log ratio): 0.48
//
VARIANT_IDENTIFIER: A16G U56A
QUALIFIER_SYMBOL: =
polymerase ribozyme fitness (log ratio): -1.7
//
VARIANT_IDENTIFIER: C93A A106C
QUALIFIER_SYMBOL: =
polymerase ribozyme fitness (log ratio): -2.63
//
VARIANT_IDENTIFIER: C27A U101G
QUALIFIER_SYMBOL: =
polymerase ribozyme fitness (log ratio): -3.63
//
VARIANT_IDENTIFIER: C8U C95U C116G U135A
QUALIFIER_SYMBOL: =
polymerase ribozyme fitness (log ratio): -3.94
//
VARIANT_IDENTIFIER: A40C C85G
QUALIFIER_SYMBOL: =
polymerase ribozyme fitness (log ratio): -1.95
//
VARIANT_IDENTIFIER: A47C C51U U53A C54A G141U
QUALIFIER_SYMBOL: =
polymerase ribozyme fitness (log ratio): -4.13
//
VARIANT_IDENTIFIER: A21U C51U G126U
QUALIFIER_SYMBOL: =
polymerase ribozyme fitness (log ratio): 0.375
//
VARIANT_IDENTIFIER: A21U C54U C63U G68A A73G C93G C108G U148G
QUALIFIER_SYMBOL: ≤
polymerase ribozyme fitness (log ratio): -4.2
//
VARIANT_IDENTIFIER: A91U A98G U102G C105U
QUALIFIER_SYMBOL: ≤
polymerase ribozyme fitness (log ratio): -4.2
//
VARIANT_IDENTIFIER: G11U G42A G50A C54A C95U G124A
QUALIFIER_SYMBOL: ≤
polymerase ribozyme fitness (log ratio): -4.2
//
VARIANT_IDENTIFIER: A22U U55G A73C G86A C116A A142U
QUALIFIER_SYMBOL: ≤
polymerase ribozyme fitness (log ratio): -4.2
//
VARIANT_IDENTIFIER: G65A C76A A122U
QUALIFIER_SYMBOL: =
polymerase ribozyme fitness (log ratio): -4.06
//
VARIANT_IDENTIFIER: U55A C95U
QUALIFIER_SYMBOL: =
polymerase ribozyme fitness (log ratio): -0.137
//
VARIANT_IDENTIFIER: A60G A89C U104G C108G
QUALIFIER_SYMBOL: ≤
polymerase ribozyme fitness (log ratio): -4.2
